- TEST_SYSTEM: T1, MEF2B (1-93)/DNA complex (Homo sapiens, UniProt Q02080)
- T1 construct: MEF2B (1-93) was expressed and purified similarly to the MEF2B/HDAC9 fusion protein; made in house
- T1 sequence (Q02080 1-93): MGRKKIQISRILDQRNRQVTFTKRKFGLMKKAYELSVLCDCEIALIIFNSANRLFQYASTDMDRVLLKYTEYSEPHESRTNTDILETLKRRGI
- ASSAY_EXPLANATION: Electrophoresis mobility shift assay (EMSA) of ternary HDAC4/MEF2/DNA complex formation
- Assay type: binding
- EXPERIMENTAL_CONDITIONS: approx. 20 μM protein
METRIC_NAME: effect of mutation on binding to the MEF2B (1-93)/DNA complex

>  <MOLECULE>
HDAC4 (155-220) Leu175Lys mutant (other, Made and purified like the wild type (pET28a, nickel agarose)) LKNKEKGKESAVASTEVKMKKQEFVLNKKKALAHRNLNHCISSDPRYWYGKTQHSSLDQSSPPQSG

>  <READOUT_VALUE>
disrupted the binding

$$$$
>  <MOLECULE>
HDAC4 (155-220) Val179Ala mutant (other, Made and purified like the wild type (pET28a, nickel agarose)) LKNKEKGKESAVASTEVKMKLQEFALNKKKALAHRNLNHCISSDPRYWYGKTQHSSLDQSSPPQSG

>  <READOUT_VALUE>
disrupted the binding

$$$$
